Each item that follows carries a reported EC50.
molecular target: human PXR (Homo sapiens, UniProt O75469); assay: PXR activation luciferase reporter assay, human PXR in HepG2-NTCP cells; settings: hPXR Activity
Sequence (O75469 whole entry): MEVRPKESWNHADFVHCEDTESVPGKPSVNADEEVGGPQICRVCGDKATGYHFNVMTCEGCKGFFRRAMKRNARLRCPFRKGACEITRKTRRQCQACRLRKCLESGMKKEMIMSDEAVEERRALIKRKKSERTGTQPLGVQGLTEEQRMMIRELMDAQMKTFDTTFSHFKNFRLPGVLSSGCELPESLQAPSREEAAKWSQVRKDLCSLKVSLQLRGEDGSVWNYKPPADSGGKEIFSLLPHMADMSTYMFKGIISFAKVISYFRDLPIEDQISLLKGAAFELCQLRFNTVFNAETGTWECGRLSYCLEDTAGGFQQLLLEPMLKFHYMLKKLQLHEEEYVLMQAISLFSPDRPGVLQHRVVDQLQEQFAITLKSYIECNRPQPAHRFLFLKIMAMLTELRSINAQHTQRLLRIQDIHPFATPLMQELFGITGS
State just the number; it will be interpreted in µM.

Here are 2 molecules together with their reported answers.
C[C@@H]1C[C@H]2[C@@H]3CCC4=CC(=O)C=C[C@]4(C)[C@@]3(F)[C@@H](O)C[C@]2(C)[C@@]1(O)C(=O)CO [PR29] : 40.7
C#C[C@]1(O)CC[C@H]2[C@@H]3CCC4=CC(=O)CC[C@@H]4[C@H]3CC[C@@]21CC [PR27] : 4.27

Please give the measured EC50 for this molecule: CC(=O)[C@H]1CC[C@H]2[C@@H]3CC[C@@H]4CC(=O)CC[C@]4(C)[C@H]3CC[C@]12C [PR2, 5β-Pregnan-3,20-dione]
2.57

Entry to check: C[C@]12CC[C@H]3[C@@H](CCC4=CC(=O)CC[C@@]43C)[C@@H]1CC[C@@H]2C(=O)CO [PR9, 4-Pregnen-21-ol-3,20-dione]
2.45

====

molecular target: zebrafish PXR (Danio rerio, UniProt A5WYG8); details: zebrafish
Sequence (A5WYG8 144-430): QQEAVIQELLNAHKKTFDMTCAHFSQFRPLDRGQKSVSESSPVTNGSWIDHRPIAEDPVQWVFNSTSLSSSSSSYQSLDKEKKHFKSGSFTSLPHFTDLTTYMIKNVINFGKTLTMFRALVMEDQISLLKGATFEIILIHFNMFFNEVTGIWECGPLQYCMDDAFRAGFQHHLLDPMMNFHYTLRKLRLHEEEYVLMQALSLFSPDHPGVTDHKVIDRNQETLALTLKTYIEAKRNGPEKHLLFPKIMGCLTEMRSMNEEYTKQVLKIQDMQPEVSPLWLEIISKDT
Each item that follows carries a reported zfPXR Efficacy.
Answer with the value's number alone.

CCCCOC(=O)c1ccc(N)cc1 [MI4, n-Butyl-4-aminobenzoate] : 0.69
C[C@@]12CCC[C@H]1[C@@H]1CC[C@H]3C[C@@H](O)CC[C@]3(C)[C@H]1CC2 : 1.66
CC(=O)[C@H]1CC[C@H]2[C@@H]3CC[C@@H]4CC(=O)CC[C@]4(C)[C@H]3CC[C@]12C : 0.85
C[C@@]12CCC[C@H]1[C@@H]1CC[C@@H]3C[C@H](O)CC[C@]3(C)[C@H]1CC2 : 0.33
C[C@@]12C=CC[C@H]1[C@@H]1CC=C3C[C@@H](O)CC[C@]3(C)[C@H]1CC2 : 1.50

Fill in the blank: the reported zfPXR Efficacy of C[C@]12CC[C@@H]3c4cc(O)c(O)cc4CC[C@H]3[C@@H]1CCC2=O is ____.
0.19

Also C[C@]12CC[C@H](O)C[C@@H]1CC[C@@H]1[C@@H]2CC[C@]2(C)C=CC[C@@H]12 , if possible.
2.11

Next up: C[C@]12CCC(=O)C[C@@H]1CC[C@@H]1[C@@H]2CC[C@]2(C)C=CC[C@@H]12
0.68

====

biological target: zebrafish PXR (Danio rerio); conditions: -log(EC50), EC50 in molar units, activation of zebrafish PXR
ENDPOINT_NAME: zfPXR Activity

C[C@H](CCC(O)C(CO)COS(=O)(=O)O)[C@H]1CC[C@H]2[C@@H]3[C@H](O)C[C@@H]4C[C@H](O)CC[C@]4(C)[C@H]3C[C@H](O)[C@]12C (some centres unmarked) : 4.35
COC(=O)CC[C@@H](C)[C@H]1CC[C@H]2[C@@H]3CC[C@@H]4C[C@H](OC(C)=O)CC[C@]4(C)[C@H]3CC[C@]12C [BI50, 5β-Cholanic acid-3α-acetate methyl ester] : None
C[C@H](CCC(=O)O)[C@H]1CC[C@H]2[C@@H]3C(=O)C[C@@H]4C[C@H](O)CC[C@]4(C)[C@H]3C[C@H](O)[C@]12C : None
CC(C)CCC[C@@H](C)[C@H]1CC[C@H]2[C@@H]3CC[C@H]4C[C@H](O)CC[C@]4(C)[C@H]3CC[C@]12C : None

Name the recorded zfPXR Activity for CC(C)[C@@H](C)/C=C/[C@@H](C)[C@H]1CC[C@H]2C3=CC=C4C[C@@H](O)CC[C@]4(C)[C@H]3CC[C@]12C [MI29, Provitamin D2] .
None

The values you see were collected from paper PMC2358886.
